fraction unbound at 24 h, 1 μmol/L: recorded values
assay: fu value (microsome) by static analysis (versus buffer), Reference Examples 14 to 20; assay type: in vitro ADME; conditions: human, human hepatic microsomes 0.1 mg/mL dialysed against buffer, microsome 0.1 mg/mL

Before answering, review these 2 worked examples.
compound=CS(=O)(=O)CCNCc1ccc(-c2ccc3ncnc(Nc4ccc(OCc5cccc(F)c5)c(Cl)c4)c3c2)o1 parameter="fraction unbound at 24 h, 1 μmol/L" reported_value=0.05
compound="CCC(C)n1ncn(-c2ccc(N3CCN(c4ccc(OCC5COC(Cn6cncn6)(c6ccc(Cl)cc6Cl)O5)cc4)CC3)cc2)c1=O (stereo not drawn)" parameter="fraction unbound at 24 h, 1 μmol/L" reported_value=0.77

Note to self: fraction unbound at 24 h, 1 μmol/L recorded for c1ccc(Cc2nn[nH]n2)c(COc2ccc(OCc3ccc4ccccc4n3)cc2)c1 was 0.77

---

Reported fraction unbound at 24 h, 0.2 μmol/L by item:
assay: in vitro; settings: rat, serum

// known answers, use as guide
molecule="C=CC(=O)N1CCC[C@@H](n2nc(-c3ccc(Oc4ccccc4)cc3)c3c(N)ncnc32)C1 [Ibrutinib]" parameter="fraction unbound at 24 h, 0.2 μmol/L" reported_value=0.007
molecule="C[C@]12C=CC(=O)N[C@@H]1CC[C@@H]1[C@@H]2CC[C@]2(C)[C@@H](C(=O)Nc3cc(C(F)(F)F)ccc3C(F)(F)F)CC[C@@H]12 [Dutasteride]" parameter="fraction unbound at 24 h, 0.2 μmol/L" reported_value=0.009
molecule="O=C(O)c1ccc(-n2nc(-c3ccccc3O)nc2-c2ccccc2O)cc1 [Deferasirox]" parameter="fraction unbound at 24 h, 0.2 μmol/L" reported_value=0.02
molecule="O=C(NC1CCN(CCCCC2(C(=O)NCC(F)(F)F)c3ccccc3-c3ccccc32)CC1)c1ccccc1-c1ccc(C(F)(F)F)cc1 [Lomitapide]" parameter="fraction unbound at 24 h, 0.2 μmol/L" reported_value=0.006

Now consider the entry below.
Lab note: measured fraction unbound at 24 h, 0.2 μmol/L of COc1ccc2c(c1)[C@@H]1C[C@]1(C(=O)N1[C@@H]3CC[C@H]1CN(C)C3)Cn1c-2c(C2CCCCC2)c2ccc(C(=O)NS(=O)(=O)N(C)C)cc21 [Beclabuvir] was 0.008

---

// values below are reported fraction unbound at 24 h, 0.2 μmol/L
test: in vitro; settings: rat
Lab note: jot the number down without any unit.

molecule="CNC(=O)c1ccc(N2C(=S)N(c3cnc(C#N)c(C(F)(F)F)c3)C(=O)C23CCC3)cc1F [Apalutamide]" reported_value=0.104

Kindly review the next molecule as well.
Consider C=C[C@@H]1C[C@]1(NC(=O)[C@@H]1C[C@@H](Oc2ncc(OC)c3ccc(Cl)cc23)CN1C(=O)[C@@H](NC(=O)OC(C)(C)C)C(C)(C)C)C(=O)NS(=O)(=O)C1CC1 . Its measured fraction unbound at 24 h, 0.2 μmol/L is 0.008
